endpoint label: melting point (°C)
The reply should be a number in °C, with the unit left off.

compound="Fc1cccc(COc2ccc(Nc3ncnc4cc(C#Cc5ccccn5)sc34)cc2Cl)c1 [Example 78]" unit_symbol=°C endpoint_result=242
compound=Fc1cccc(COc2ccc(Nc3ncnc4sc(C#Cc5ncccn5)cc34)cc2Cl)c1 unit_symbol=°C endpoint_result=225
compound="Fc1cccc(COc2ccc(Nc3ncnc4sc(C#Cc5ccccn5)cc34)cc2Cl)c1 [Example 99]" unit_symbol=°C endpoint_result=180

Attention now turns to another entry.
Form field melting point, entry Fc1cccc(COc2ccc(Nc3ncnc4sc(C#Cc5nccs5)cc34)cc2Cl)c1 [Example 101] : 204
